All values here come from PubChem BioAssay (NCI).

Experiment: NCI Yeast Anticancer Drug Screen. Data for the mec2-1 strain (AID 157)
Conditions: S. cerevisiae mec2-1 strain, at 50.0 µM
The panel holds about 79,000 compounds, 15% with a hit somewhere; the sample as a whole holds those more often. Activity calls are given as the source filed them. No stated cut-off is given here; in the data, active means growth inhibition above about 70%; inactive means the rest.
Answer with one of the outcomes given here: true = active, false = inactive

These solved cases illustrate the format of a correct answer.
COMPOUND	LABEL
C=CC(=O)OCCN(C)C	false
CC1(C)C2CCC([CH2][Hg][Cl])C1C2 (configuration not stated)	true
OC1CC([CH2][Hg][I])OC([CH2][Hg][I])C1 (configuration not stated)	true
CCCCCCCCCC(=O)[O][Hg][c]1ccccc1	true
CC(=O)Nc1nc(CCl)cs1	false
CN1C2CCC1c1c([nH]c3ccccc13)C2 (configuration not stated)	false
CCCCOP(=O)(CCCC)OCCCC.CCCCOP(=O)(CCCC)OCCCC.CCCCOP(=O)(CCCC)OCCCC.CCCCOP(=O)(CCCC)OCCCC.O.O.[Co+2].[O-][Cl+3]([O-])([O-])O	false
COc1cccc(/C=N/[N-]C(=O)c2ccncc2)c1[O-].[Ni+2].[OH3+]	false

Request: // outcome(item) with item = [Se]C1=NCCN1
Response: true

Request: What was the test verdict on CCOC(=O)/C(=C\c1cccc(F)c1)[Se]c1ccccc1 ?
Response: false

Request: Answer briefly: the call reported for CN(C)CCBr in this assay.
Response: true

Request: Given [Cl][Hg][c]1ccco1 , state the outcome it received in this test.
Response: true

Request: Per the assay record, what outcome was assigned to O=[N+]([O-])c1ncccc1NCCN1CCCC1 ?
Response: false

Request: Fill in: this test's call for CCS(=O)(=O)CCN1C(=O)CN=C(c2ccccc2F)c2cc(Cl)ccc21 is ___
Response: false

Request: State the result this test recorded for C/C=C/C1(CCCC)C(=O)NC(=O)NC1=O .
Response: false

Request: Hi, do you know how CSCCC([NH-])C(=O)O.CSCCC([NH-])C(=O)O.[Cu+2] (configuration not stated) came out in this test?
Response: false

Request: Recorded test outcome, item NNc1ncc[nH]1
Response: false

Request: Tell me the assay call for O=C(NCCN1CCOCC1)c1ccc2cc(C(=O)N3CC(CCl)c4ccc([N+](=O)[O-])cc43)[nH]c2c1 (configuration not stated) please.
Response: true

Request: Call for entry ClCc1ccco1 :
Response: false

Request: Give the logged outcome of this assay for the following compound: Cc1nc(N)sc1S(=O)(=O)F
Response: false

Request: Hi team, can someone confirm the assay call for CC(=O)O[C@H]1CCC2[C@@H]3CC[C@]4(C)CC(=O)C=C[C@]4(C)C3CC[C@@]21C (some centres not stated) ?
Response: true

Request: How was O=P1(N2CCOCC2)OC(c2ccccc2)=CCN1c1ccccc1 (configuration not stated) classified in this test?
Response: false

Request: Check the results log: what was the call for O=C(COc1ccc(Cl)c(Cl)c1)Nc1ccc[n+](Cc2c(Cl)cccc2S(=O)(=O)F)c1 ?
Response: false

Request: Dear all, I need the recorded test outcome for O=C([CH-]C(=O)c1ccccc1)c1ccccc1.O=C([CH-]C(=O)c1ccccc1)c1ccccc1.O=C([CH-]C(=O)c1ccccc1)c1ccccc1.[Cl-].[Hf+4] , thank you.
Response: true

Request: Status in this test for CN1CN(c2ccccc2)C2(CCN(CC(C)(c3ccc(F)cc3)C3OCCCO3)CC2)C1=O (configuration not stated) ?
Response: false
